target-or-system: UDP-3-O-acyl-N-acetylglucosamine deacetylase (Aquifex aeolicus (strain VF5), UniProt O67648)
Sequence (O67648 whole entry): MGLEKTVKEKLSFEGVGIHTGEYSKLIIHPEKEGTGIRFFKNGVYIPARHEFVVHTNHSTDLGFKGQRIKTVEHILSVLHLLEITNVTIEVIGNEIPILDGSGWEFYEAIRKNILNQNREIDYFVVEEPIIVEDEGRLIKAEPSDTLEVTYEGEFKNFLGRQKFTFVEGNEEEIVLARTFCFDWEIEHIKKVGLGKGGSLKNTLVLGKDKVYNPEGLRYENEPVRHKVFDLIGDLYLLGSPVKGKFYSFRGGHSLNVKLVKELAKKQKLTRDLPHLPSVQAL
measurement-notes: Binding affinity to Aquifex aeolicus LpxC by isothermal titration calorimetry
pKd: −log10 of the molar value.
value-type: pKd

>>> measured_number("CCCCCCCOc1ccc(C(=O)O)cc1OC")
5.07
>>> measured_number("CCCCCC/C=C/c1ccc(C(=O)O)cc1")
5.21
>>> measured_number("CCCCCCCOc1ccc(C(=O)O)cc1O")
5.05
>>> measured_number("CCCCCCCc1ccc(C(=O)O)cc1")
4.46
>>> measured_number("CCCCCCCOc1ccc(C(=O)O)cc1Cl")
4.52
>>> measured_number("CCCCCCCOc1ccc(CC(=O)O)cc1")
5.59
>>> measured_number("CCCCCCCOc1ccc(C(=O)O)cc1[N+](=O)[O-]")
5.19
>>> measured_number("CCCCCCCOc1ccc(C(=O)O)cc1")
5.64
